Where do the numbers come from? From the supplement of paper PMC8728848.

target: Man(a1-2)Man(a1-2)Man(a1-3)Man; assay: glycan array binding signal (z-score within array); higher = stronger binding; conditions: glycan notation: IUPAC condensed, linker removed
The full list was thinned out, with the strongest signals kept by preference.
PARAMETER: glycan array binding signal (z-score)
Give only the figure.

BINDER: SLLPI (Homo sapiens), Q8IXA5 (protein) MVSALRGAPLIRVHSSPVSSPSVSGPRRLVSCLSSQSSALSQSGGGSTSAAGIEARSRALRRRWCPAGIMLLALVCLLSCLLPSSEAKLYGRCELARVLHDFGLDGYRGYSLADWVCLAYFTSGFNAAALDYEADGSTNNGIFQINSRRWCSNLTPNVPNVCRMYCSDLLNPNLKDTVICAMKITQEPQGLGYWEAWRHHCQGKDLTEWVDGCDF
glycan array binding signal (z-score): 3.65

Ask | Fill in reported glycan array binding signal (z-score) for this entry: CFEM-SCL (Saccharomyces cerevisiae), O13547 (protein) MRATTLLSSVVSLALLSKEVLATPPACLLACVAQVGKSSSTCDSLNQVTCYCEHENSAVKKCLDSICPNNDADAAYSAFKSSCSEQNASLGD
Reply | 0.113
